Assay: gradient 5% acetonitrile 3 min, to 50% in 2 min, to 85% in 15 min, held 3 min, 100 µL/min
Conditions: column: Zorbax Extend-C18 2.1 x 50 mm; eluents: water / acetonitrile, 0.1% formic acid
quantity-name: RP-LC retention time (s)

Study these solved cases before continuing.
>>> endpoint_value("COc1ccc(CC(=O)N2C[C@@H]3C[C@H]2C[C@@H]3NC(=O)c2ccccc2)c(Cl)c1")
738
>>> endpoint_value("O=c1ccc(-c2ccc3c(c2)OCO3)nn1Cc1nc(-c2ccc(C(F)(F)F)cc2)no1")
1070
>>> endpoint_value("Cc1cc(C(=O)N2CCCC2Cc2noc(C3CCCC3)n2)n[nH]1 (centres undefined)")
750
>>> endpoint_value("CNC(=O)Oc1ccc2c(c1)[C@]1(C)CCN(C)C1N2C (some centres undefined)")
594
>>> endpoint_value("CC1CC(=O)N(CC(=O)Nc2ccc(Cl)cc2)c2ccccc2S1(=O)=O (centres undefined)")
843

a = COCCN1C(=O)[C@H]2CN(Cc3cc(Cl)ccc3F)C[C@H]2C1=O
b = COCCn1c(SCc2nc(-c3ccccc3)no2)nc2cc3c(cc2c1=O)OCO3
In terms of reported RP-LC retention time, does a or b have the smaller number? Your choice should be expressed through its label.
a
(a: 696 s, b: 1040 s)

a = COc1cc(C(=O)Nc2nc3c(s2)CCc2ccccc2-3)cc(OC)c1OC
b = CCC(=O)NCc1nc2c(n1C)CN(S(=O)(=O)c1cccc(C(F)(F)F)c1)CC2
Which of the two gives a bigger number for RP-LC retention time: a or b ? Your choice should be expressed through its label.
a
(a: 1110 s, b: 591 s)
